The values you see were collected from patent US20210130436A1.

- assayed_system: T1, human PD-L1 on CHO cells (human, UniProt Q9NZQ7 19-290)
- T1 construct: whole, on cells; CHO cells stably expressing PD-L1; also called huPD-L1
- T1 sequence (Q9NZQ7 19-290): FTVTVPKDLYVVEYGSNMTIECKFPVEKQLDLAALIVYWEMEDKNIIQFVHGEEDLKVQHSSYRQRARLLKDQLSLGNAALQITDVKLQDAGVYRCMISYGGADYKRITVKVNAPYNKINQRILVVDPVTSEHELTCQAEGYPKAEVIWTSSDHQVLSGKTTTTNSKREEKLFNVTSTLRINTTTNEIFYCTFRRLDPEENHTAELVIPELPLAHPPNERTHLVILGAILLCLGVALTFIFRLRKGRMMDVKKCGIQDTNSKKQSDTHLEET
- assay_method_text: flow cytometry, CHO/PD-L1 cells; MFI relative to WT CD80
parameter: Fold change to WT CD80 (fold)

Example results:
variant CD80 IgV-Fc Q27H/E35D/M47I (Fc fusion, not shown: a dimerising Fc or GST) VIHVTKEVKEVATLSCGHNVSVEELAHTRIYWQKDKKMVLTMMSGDINIWPEYKNRTIFDITNNLSIVILALRPSDEGTYECVVLKYEKDAFKREHLAEVTLSVKAD : 48.7
CD80 WT IgV-Fc (Fc fusion, not shown: a dimerising Fc or GST, also called WT CD80 IgV-Fc; wild-type CD80 IgV-Fc) VIHVTKEVKEVATLSCGHNVSVEELAQTRIYWQKEKKMVLTMMSGDMNIWPEYKNRTIFDITNNLSIVILALRPSDEGTYECVVLKYEKDAFKREHLAEVTLSVKAD : 1
variant CD80 IgV-Fc M43I/M47L/A71G (Fc fusion, not shown: a dimerising Fc or GST) VIHVTKEVKEVATLSCGHNVSVEELAQTRIYWQKEKKMVLTMISGDLNIWPEYKNRTIFDITNNLSIVILGLRPSDEGTYECVVLKYEKDAFKREHLAEVTLSVKAD : 110
variant CD80 IgV-Fc E35D/T41S/N48I (Fc fusion, not shown: a dimerising Fc or GST, also called E35D/T41S/N48T) VIHVTKEVKEVATLSCGHNVSVEELAQTRIYWQKDKKMVLSMMSGDMTIWPEYKNRTIFDITNNLSIVILALRPSDEGTYECVVLKYEKDAFKREHLAEVTLSVKAD : 31.2
variant CD80 IgV-Fc H18Y/E35D (Fc fusion, not shown: a dimerising Fc or GST) VIHVTKEVKEVATLSCGYNVSVEELAQTRIYWQKDKKMVLTMMSGDMNIWPEYKNRTIFDITNNLSIVILALRPSDEGTYECVVLKYEKDAFKREHLAEVTLSVKAD : 50.2
variant CD80 IgV-Fc V22A/E35D/M47L/A71G (Fc fusion, not shown: a dimerising Fc or GST) VIHVTKEVKEVATLSCGHNVSAEELAQTRIYWQKDKKMVLTMMSGDLNIWPEYKNRTIFDITNNLSIVILGLRPSDEGTYECVVLKYEKDAFKREHLAEVTLSVKAD : 116

[1] variant CD80 IgV-Fc M47I/A71G (Fc fusion, not shown: a dimerising Fc or GST) VIHVTKEVKEVATLSCGHNVSVEELAQTRIYWQKEKKMVLTMMSGDINIWPEYKNRTIFDITNNLSIVILGLRPSDEGTYECVVLKYEKDAFKREHLAEVTLSVKAD
[2] variant CD80 IgV-Fc Q27L/E35D/M47V/I61V/L85M (Fc fusion, not shown: a dimerising Fc or GST) VIHVTKEVKEVATLSCGHNVSVEELALTRIYWQKDKKMVLTMMSGDVNIWPEYKNRTIFDVTNNLSIVILALRPSDEGTYECVVMKYEKDAFKREHLAEVTLSVKAD
**Q:** Larger number for Fold change to WT CD80: 1 , or 2 ? Answer = label.
**A:** 1

[1] variant CD80 IgV-Fc D46V/M47I/A71G (Fc fusion, not shown: a dimerising Fc or GST) VIHVTKEVKEVATLSCGHNVSVEELAQTRIYWQKEKKMVLTMMSGVINIWPEYKNRTIFDITNNLSIVILGLRPSDEGTYECVVLKYEKDAFKREHLAEVTLSVKAD
[2] variant CD80 IgV-Fc E35D/M47V (Fc fusion, not shown: a dimerising Fc or GST) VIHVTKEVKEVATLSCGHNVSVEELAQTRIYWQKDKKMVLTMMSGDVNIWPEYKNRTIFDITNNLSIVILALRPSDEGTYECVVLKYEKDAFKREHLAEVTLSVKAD
**Q:** Param metric = Fold change to WT CD80; output whichever of 1 , 2 has the minimum value. Return value: the label identifying the chosen record.
**A:** 2
